# targetOrSystem: recombinant human ALX receptor (Homo sapiens, UniProt P25090)
# measurementProtocol: Intracellular calcium measurements (FLIPR), ALX receptor agonistic activity
# testSettings: HEK293-hALXR-Gα16 cells, Fluo-4 calcium signal, normalized to WKYMVm 10 nM
pEC50: −log10 of the molar value. Structures can show the parent of a compound that is named as a salt.

{"compound": "COc1ccc(C[C@@H](NC(=O)NCCC2CCCN2C)c2nc3ccccc3[nH]2)cc1 (stereo partly shown) [Example 65, dihydrochloride]", "pEC50": 6.54}
{"compound": "COc1ccc(C[C@@H](NC(=O)N[C@H]2CC[C@@](C)(O)CC2)c2nc3ccccc3[nH]2)cc1", "pEC50": 7.72}
{"compound": "O=C(NC(Cc1ccc(Br)c(F)c1)c1nc2ccccc2[nH]1)NC12CCC(O)(CC1)CC2 (single isomer, unassigned; ent-1) [Example 258]", "pEC50": 7.40}
{"compound": "COc1ccc(C[C@@H](NC(=O)NC2CCCN(CC(F)F)C2)c2nc3ccccc3[nH]2)cc1 (stereo partly shown)", "pEC50": 7.54}

###

# targetOrSystem: recombinant human ALX receptor (Homo sapiens)
# Sequence (P25090 1-351): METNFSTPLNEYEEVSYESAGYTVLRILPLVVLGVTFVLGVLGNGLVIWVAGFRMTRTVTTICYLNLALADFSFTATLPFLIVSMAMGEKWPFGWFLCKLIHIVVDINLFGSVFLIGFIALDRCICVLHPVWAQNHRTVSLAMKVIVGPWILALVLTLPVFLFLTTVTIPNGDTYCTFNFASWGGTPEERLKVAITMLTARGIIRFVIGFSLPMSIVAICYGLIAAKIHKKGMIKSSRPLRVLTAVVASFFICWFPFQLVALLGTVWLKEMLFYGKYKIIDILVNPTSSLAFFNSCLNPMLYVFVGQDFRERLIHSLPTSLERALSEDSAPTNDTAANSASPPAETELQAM
# measurementProtocol: Intracellular calcium measurements (FLIPR), ALX receptor agonistic activity
# testSettings: HEK293-hALXR-Gα16 cells, Fluo-4 calcium signal, normalized to WKYMVm 10 nM
Parameter EC50: see the listing below.

{"molecule": "O=C(N[C@H](Cc1ccc(Br)cc1)c1nc2ccc(C(F)(F)F)cc2[nH]1)N[C@H]1CC[C@H](O)CC1 [Example 222]", "EC50, nM": 7.8}
{"molecule": "COc1ccc(C[C@@H](NC(=O)N[C@H]2CCCC[C@@H]2CO)c2nc3ccccc3[nH]2)cc1 (relative stereo) [Example 32]", "EC50, nM": 13}
{"molecule": "COc1ccc(C[C@@H](NC(=O)NC2CCCC2)c2nc3ccccc3[nH]2)cc1 [Example 75]", "EC50, nM": 41}
{"molecule": "O=C(N[C@H](Cc1ccc(Br)cc1)c1nc2ccc(Cl)cc2[nH]1)NC12CCC(O)(CC1)CC2 [Example 194]", "EC50, nM": 1.9}

###

Parameter pEC50: see the listing below.
# targetOrSystem: recombinant human ALX receptor (Homo sapiens, UniProt P25090)
# measurementProtocol: Intracellular calcium measurements (FLIPR), ALX receptor agonistic activity
# testSettings: HEK293-hALXR-Gα16 cells, Fluo-4 calcium signal, normalized to WKYMVm 10 nM
pEC50: −log10 of the molar value.
reportedMetric: pEC50

{"molecule": "COc1ccc(CC(NC(=O)NC2CCN(C)CC2)c2nc3ccccc3[nH]2)cc1 (stereo not shown)", "measValue": 7.07}
{"molecule": "CCn1ccc(C(C)NC(=O)N[C@H](Cc2ccc(OC)cc2)c2nc3ccccc3[nH]2)n1 (stereo partly shown)", "measValue": 7.23}
{"molecule": "COc1ccc(C[C@@H](NC(=O)Nc2cccnc2)c2nc3ccccc3[nH]2)cc1", "measValue": 6.52}
{"molecule": "COc1ccc(CC(NC(=O)NCCN2CCCC2)c2nc3ccccc3[nH]2)cc1 (stereo not shown)", "measValue": 5.57}
